Origin of the recorded values: paper PMC4579270

target: CDK2 (Homo sapiens, UniProt P24941)
Property Measured: pIC50
Note on pIC50: it is the negative log10 of concentration, concentration in mol/L.

Problem: Send back CDK2 (Homo sapiens, UniProt P24941) pIC50 of "CCS(=O)(=O)c1ccc(Nc2nc(OCC3CCCCC3)c3nc[nH]c3n2)cc1" only.
Solution: 6.80
